Reference source for all entries: patent US20230374151A1

# Assayed target: T1, STnMUC1 peptide, biotinylated
# T1 construct: also called STn peptide; 35-1
# T1 sequence (main, as listed by the source): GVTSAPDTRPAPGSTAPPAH
# Assay comment: SPR (Biacore T200): biotinylated STnMUC1 peptide (35-1) captured on CAP chip, scFv as analyte, 1:1 fit, average
Measured parameter: Kd (nM)

[
  {
    "Binder": "humanised anti-TnMUC1 scFv protein 13P16 (97A), L2-H3 (scFv, Supernatant of construct 6D16 in the Octet assay; purified 13P16 elsewhere. scFv of CAR MB024; also called 6D16) scFv: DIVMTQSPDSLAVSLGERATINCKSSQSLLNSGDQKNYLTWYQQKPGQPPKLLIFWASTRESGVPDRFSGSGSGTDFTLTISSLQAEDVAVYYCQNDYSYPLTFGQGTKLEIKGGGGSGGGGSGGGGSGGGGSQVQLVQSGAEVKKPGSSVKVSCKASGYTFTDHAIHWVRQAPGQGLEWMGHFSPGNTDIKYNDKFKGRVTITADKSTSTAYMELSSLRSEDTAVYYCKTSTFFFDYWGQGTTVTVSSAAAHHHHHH",
    "Measured parameter": "Kd",
    "Endpoint value": 445
  },
  {
    "Binder": "humanised anti-TnMUC1 scFv protein 13P18 (19A), L2-H5 (scFv, Supernatant of construct 6D18 in the Octet assay; purified 13P18 elsewhere. scFv of CAR MB025; also called 6D18) scFv: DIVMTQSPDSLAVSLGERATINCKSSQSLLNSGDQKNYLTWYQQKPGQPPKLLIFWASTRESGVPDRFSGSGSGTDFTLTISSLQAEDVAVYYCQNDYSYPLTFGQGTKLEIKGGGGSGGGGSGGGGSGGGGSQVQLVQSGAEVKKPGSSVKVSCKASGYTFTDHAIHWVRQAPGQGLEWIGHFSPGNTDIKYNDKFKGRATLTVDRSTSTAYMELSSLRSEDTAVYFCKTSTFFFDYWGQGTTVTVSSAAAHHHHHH",
    "Measured parameter": "Kd",
    "Endpoint value": 196
  },
  {
    "Binder": "humanised anti-TnMUC1 scFv protein 16P4 (82A), L0-H3 (scFv, Supernatant of construct 6D4 in the Octet assay; purified 16P4 elsewhere. scFv of CAR MB021; also called 6D4) scFv: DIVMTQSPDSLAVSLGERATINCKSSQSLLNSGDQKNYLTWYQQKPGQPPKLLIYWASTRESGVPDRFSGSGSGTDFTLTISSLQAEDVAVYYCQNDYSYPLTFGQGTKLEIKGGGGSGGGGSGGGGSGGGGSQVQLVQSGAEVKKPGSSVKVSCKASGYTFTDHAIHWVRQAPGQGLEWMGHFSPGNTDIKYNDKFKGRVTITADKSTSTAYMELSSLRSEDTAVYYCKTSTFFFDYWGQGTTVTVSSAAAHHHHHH",
    "Measured parameter": "Kd",
    "Endpoint value": 536
  },
  {
    "Binder": "humanised anti-TnMUC1 scFv protein 11P6 (89A), L0-H5 (scFv, Supernatant of construct 6D6 in the Octet assay; purified 11P6 elsewhere; also called 6D6) scFv: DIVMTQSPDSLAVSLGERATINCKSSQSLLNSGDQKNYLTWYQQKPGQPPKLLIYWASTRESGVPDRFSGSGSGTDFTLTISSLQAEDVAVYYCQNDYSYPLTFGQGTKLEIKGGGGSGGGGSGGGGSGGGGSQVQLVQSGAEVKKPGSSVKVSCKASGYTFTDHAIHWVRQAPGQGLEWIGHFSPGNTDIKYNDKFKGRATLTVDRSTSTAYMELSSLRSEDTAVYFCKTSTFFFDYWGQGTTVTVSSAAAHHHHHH",
    "Measured parameter": "Kd",
    "Endpoint value": 199
  }
]
